Molecular target: Small conductance calcium-activated potassium channel (Rattus norvegicus, UniProt P70604+P70606+P70605)
Experiment: The blocking of apamin-sensitive [Ca2+]-activated K+ (SKCa) channel was assessed by the compounds ability to inhibit the after-hyperpolarization in cultured rat superior cervical ganglion neurons
Type: functional
metric: IC50 (nM)
Give just the numeric value; nM need not be written.

// query So what's the measured IC50 for this one? c1ccc2c(c1)c1cc[n+]2Cc2ccc3c(c2)Cc2cc(ccc2-3)C[n+]2ccc(c3ccccc32)NCc2ccc(cc2)-c2ccc(cc2)CN1
// result 120

// query Would you kindly repeat that for C1=C\c2ccc(cc2)C[n+]2ccc(c3ccccc32)NCc2ccc(cc2)Cc2ccc(cc2)CNc2cc[n+](c3ccccc23)Cc2ccc/1cc2 ?
// result 250

// query Would you kindly repeat that for c1cc2cc(c1)-c1cccc(c1)C[n+]1ccc(c3ccccc31)NCCCCCCCCCCNc1cc[n+](c3ccccc13)C2 ?
// result 110

// query Would you kindly repeat that for Nc1cc[n+](Cc2ccc(/C=C\c3ccc(C[n+]4ccc(N)c5ccccc54)cc3)cc2)c2ccccc12 ?
// result 190

// query Would you kindly repeat that for c1ccc2c(c1)c1cc[n+]2Cc2ccc3c(c2)Cc2cc(ccc2-3)C[n+]2ccc(c3ccccc32)NCCCCCCCCCCN1 ?
// result 90

// query Would you kindly repeat that for Nc1cc[n+](Cc2ccc(Cc3ccc(C[n+]4ccc(N)c5ccccc54)cc3)cc2)c2ccccc12 ?
// result 450

// query Would you kindly repeat that for Nc1cc[n+](Cc2ccc(C[n+]3ccc(N)c4ccccc43)cc2)c2ccccc12 ?
// result 2800

// query Would you kindly repeat that for Oc1c2cccc1C[n+]1ccc(c3ccccc31)NCc1ccc(cc1)CNc1cc[n+](c3ccccc13)C2 ?
// result 60

// query Would you kindly repeat that for c1cc2nc(c1)-c1ccc(cc1)C[n+]1ccc(c3ccccc31)NCc1ccc(cc1)Cc1ccc(cc1)CNc1cc[n+](c3ccccc13)Cc1ccc-2cc1 ?
// result 380

// query Would you kindly repeat that for c1ccc2c(c1)c1cc[n+]2Cc2ccc(cc2)-c2ccc(cc2)C[n+]2ccc(c3ccccc32)NCc2ccc(cc2)Cc2ccc(cc2)CN1 ?
// result 150

// query Would you kindly repeat that for c1cc2cc(c1)C[n+]1ccc(c3ccccc31)NCc1ccc(cc1)CNc1cc[n+](c3ccccc13)C2 ?
// result 3

// query Would you kindly repeat that for c1ccc2c(c1)c1cc[n+]2Cc2ccc(cc2)Cc2ccc(cc2)C[n+]2ccc(c3ccccc32)NCc2ccc(cc2)Cc2ccc(cc2)CN1 ?
// result 260

// query Would you kindly repeat that for c1cc2cc(c1)CNc1cc[n+](c3ccccc13)Cc1cccc(c1)C[n+]1ccc(c3ccccc31)NC2 ?
// result 130

// query Would you kindly repeat that for c1ccc2c(c1)c1cc[n+]2Cc2ccc(cc2)Cc2ccc(cc2)C[n+]2ccc(c3ccccc32)NCCCCCCCCCCN1 ?
// result 80

// query Would you kindly repeat that for c1cc2cc(c1)CNc1cc[n+](c3ccccc13)Cc1ccc(cc1)C[n+]1ccc(c3ccccc31)NC2 ?
// result 70
